- test system: E3 ubiquitin-protein ligase Mdm2 (Homo sapiens, UniProt Q00987)
- Sequence (Q00987 whole entry, looked up): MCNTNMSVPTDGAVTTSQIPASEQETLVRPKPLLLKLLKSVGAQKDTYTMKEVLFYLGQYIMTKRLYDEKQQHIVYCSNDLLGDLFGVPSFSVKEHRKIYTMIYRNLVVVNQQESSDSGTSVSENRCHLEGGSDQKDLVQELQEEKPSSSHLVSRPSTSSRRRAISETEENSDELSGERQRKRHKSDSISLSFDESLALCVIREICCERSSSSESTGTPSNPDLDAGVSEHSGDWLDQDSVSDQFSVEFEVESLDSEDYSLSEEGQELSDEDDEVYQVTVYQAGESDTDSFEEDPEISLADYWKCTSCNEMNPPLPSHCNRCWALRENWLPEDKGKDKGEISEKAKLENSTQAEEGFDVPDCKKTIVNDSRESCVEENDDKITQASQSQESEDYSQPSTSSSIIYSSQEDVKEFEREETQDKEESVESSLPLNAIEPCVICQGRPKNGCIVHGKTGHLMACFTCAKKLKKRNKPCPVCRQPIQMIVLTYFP
- experiment notes: Inhibition of MDM2 in human U2OS cells assessed as increase in MDM2 expression at 30 uM incubated for 16 hrs by Western blot analysis
- Assay type: cell-based
Activity calls are given as the source filed them. No cut-off for these calls is given here.
readout: Increase in MDM2 expression (active/inactive)

CC(=O)N[C@H](C(=O)N[C@@H](Cc1ccccc1)CN(CC(=O)N[C@H]1CCC(=O)NCCCC[C@@H](CN(CC(=O)N[C@@H](CC(C)C)C(=O)N[C@@H](CO)CN(CC(=O)N[C@@H](C)C(N)=O)S(C)(=O)=O)S(=O)(=O)CC(C)C)NC(=O)[C@H](C)NC(=O)CN(S(=O)(=O)c2ccc3ccccc3c2)C[C@H](Cc2ccc(O)cc2)NC1=O)S(C)(=O)=O)[C@@H](C)O; Active
CC(C)C[C@H](NC(=O)CN(C[C@@H]1CCCCNC(=O)CC[C@H](NC(=O)CN(C[C@H](Cc2ccccc2)NC(=O)[C@@H](NC(=O)CCc2ccccc2)[C@@H](C)O)S(C)(=O)=O)C(=O)N[C@@H](Cc2ccc(O)cc2)CN(S(=O)(=O)c2ccc3ccccc3c2)CC(=O)N[C@@H](C)C(=O)N1)S(=O)(=O)CC(C)C)C(=O)N[C@@H](CO)CN(CC(=O)N[C@@H](C)C(N)=O)S(C)(=O)=O; Active
CC(=O)N[C@H](C(=O)N[C@@H](Cc1ccccc1)CN(CC(=O)N[C@H]1CCC(=O)NCCCC[C@@H](CN(CC(=O)N[C@@H](CC(C)C)C(=O)N[C@@H](CO)CN(CC(=O)N[C@@H](C)C(N)=O)S(C)(=O)=O)S(C)(=O)=O)NC(=O)[C@H](C)NC(=O)CN(S(=O)(=O)c2ccc3ccccc3c2)C[C@H](Cc2ccc(O)cc2)NC1=O)S(C)(=O)=O)[C@@H](C)O; Active
CC(=O)N[C@H](C(=O)N[C@@H](Cc1c[nH]c2ccccc12)CN(CC(=O)N[C@H]1CCC(=O)NCCCC[C@@H](CN(CC(=O)N[C@@H](CC(C)C)C(=O)N[C@@H](CO)CN(CC(=O)N[C@@H](C)C(N)=O)S(C)(=O)=O)S(=O)(=O)CC(C)C)NC(=O)[C@H](C)NC(=O)CN(S(=O)(=O)c2ccc3ccccc3c2)C[C@H](Cc2ccc(O)cc2)NC1=O)S(C)(=O)=O)[C@@H](C)O; Active
